Test system: 521955-158-R2-J5-PDC complex spheroid viability
Experiment: Anticancer human tumor 521955-158-R2-J5-PDC patient-derived pancreatic carcinoma cell line growth inhibition
Details: second compound 3.16 µM; first compound 0.316 µM; hits give low values
Friendly reminder: viability, T/C below 60% is TRUE, at or above is FALSE.

# TODO verify viability, T/C < 60% strictly for this compound: COc1ccc([C@@H](O)c2cc(-c3ncnc4cc(N5CCOCC5)ccc34)c(F)cc2Cl)nn1 + NC1CC1c1ccc(-c2cccc(O)c2)cc1
FALSE

# TODO verify viability, T/C < 60% strictly for this compound: COc1cc(Nc2ncc3c(n2)-c2ccc(Cl)cc2C(c2c(F)cccc2OC)=NC3)ccc1C(=O)O + NC1CCC(NC2CC2c2ccccc2)CC1
TRUE

# TODO verify viability, T/C < 60% strictly for this compound: CC(C)c1c(-c2ccccc2)nc2c(C#N)c[nH]n2c1=O + NC1CC1c1ccc(-c2cccc(O)c2)cc1
FALSE

# TODO verify viability, T/C < 60% strictly for this compound: CC1COCCN1c1cc(-c2ccnn2C)c2ccnc(-c3ccn[nH]3)c2n1 (stereo not given) + NC1CCC(NC2CC2c2ccccc2)CC1
TRUE

---

Reported values of viability, T/C for individual entries
Tested on: 521955-158-R2-J5-PDC complex spheroid viability
Experiment: Anticancer human tumor 521955-158-R2-J5-PDC cell line growth inhibition
Conditions: second compound 3.16 µM; first compound 0.00316 µM; hits give low values

Sample records with viability, T/C:
| compound | viability, T/C |
| --- | --- |
| CC(C)CC(NC(=O)C(Cc1ccccc1)NC(=O)c1cnccn1)B(O)O (stereo unspecified) + NC1CC1c1ccc(-c2cccc(O)c2)cc1 | 0.15% |
| O=C(C=Cn1cnc(-c2cc(C(F)(F)F)cc(C(F)(F)F)c2)n1)NNc1cnccn1 + NC1CC1c1ccc(-c2cccc(O)c2)cc1 | 67.2% |
| Nc1ncn(C2CC(O)C(CO)O2)c(=O)n1 (stereo unspecified) + NC1CCC(NC2CC2c2ccccc2)CC1 | 96.4% |
| CC1COCCN1c1cc(-c2ccnn2C)c2ccnc(-c3ccn[nH]3)c2n1 (stereo unspecified) + NC1CCC(NC2CC2c2ccccc2)CC1 | 17.2% |

viability, T/C recorded for this compound, COc1cc(Nc2ncc3c(n2)-c2ccc(Cl)cc2C(c2c(F)cccc2OC)=NC3)ccc1C(=O)O + NC1CCC(NC2CC2c2ccccc2)CC1 , is 55.2%

viability, T/C recorded for this compound, Cn1ncnc1C1c2n[nH]c(=O)c3cc(F)cc(c23)NC1c1ccc(F)cc1 (stereo unspecified) + NC1CCC(NC2CC2c2ccccc2)CC1 , is 95%

---

Test system: 521955-158-R2-J5-PDC complex spheroid viability
Assay: Anticancer human tumor 521955-158-R2-J5-PDC cell line growth inhibition;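 also: spheroids exposed to agents for seven days; percent of DMSO vehicle control luminescence viability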
Conditions: second compound 1 µM; first compound 0.01 µM; hits give low values
Reported values of viability, T/C for individual entries

| compound | assayedTarget | viability, T/C |
| --- | --- | --- |
| COc1cc(Nc2ncc3c(n2)-c2ccc(Cl)cc2C(c2c(F)cccc2OC)=NC3)ccc1C(=O)O + NC1CCC(NC2CC2c2ccccc2)CC1 | 521955-158-R2-J5-PDC complex spheroid viability | 54.1% |
| CC[C@@]1(O)C(=O)OCc2c1cc1n(c2=O)Cc2cc3c(CN(C)C)c(O)ccc3nc2-1 + NC1CC1c1ccc(-c2cccc(O)c2)cc1 | 521955-158-R2-J5-PDC complex spheroid viability | 29.1% |

viability, T/C recorded for this compound, COc1cc(Nc2ncc3c(n2)-c2ccc(Cl)cc2C(c2c(F)cccc2OC)=NC3)ccc1C(=O)O + NC1CC1c1ccc(-c2cccc(O)c2)cc1 , is 71.4%

---

Test system: 521955-158-R2-J5-PDC complex spheroid viability
Test: Anticancer human tumor 521955-158-R2-J5-PDC cell line growth inhibition; active = viability on the fitted dose curve at most 10% of control; inactive = the rest;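 also: spheroids exposed to agents for seven days; percent of DMSO vehicle control luminescence viability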
Details: second compound 0.316 µM; first compound 0.1 µM
Entry note: the call must match one of yes (1) (active), no (0) (inactive)

Would you please look over these solved cases?
| molecule | classLabel |
| --- | --- |
| Nc1ncn(C2CC(O)C(CO)O2)c(=O)n1 (stereo not drawn) + NC1CC1c1ccc(-c2cccc(O)c2)cc1 | no (0) |
| O=C(C=Cn1cnc(-c2cc(C(F)(F)F)cc(C(F)(F)F)c2)n1)NNc1cnccn1 + NC1CCC(NC2CC2c2ccccc2)CC1 | no (0) |
| Cn1ncnc1C1c2n[nH]c(=O)c3cc(F)cc(c23)NC1c1ccc(F)cc1 (stereo not drawn) + NC1CCC(NC2CC2c2ccccc2)CC1 | no (0) |
| CC1COCCN1c1cc(C2(S(C)(=N)=O)CC2)nc(-c2ccnc3[nH]ccc23)n1 (stereo not drawn) + NC1CCC(NC2CC2c2ccccc2)CC1 | no (0) |
| COc1ccc([C@@H](O)c2cc(-c3ncnc4cc(N5CCOCC5)ccc34)c(F)cc2Cl)nn1 + NC1CCC(NC2CC2c2ccccc2)CC1 | no (0) |

Dear colleague, could you share the recorded outcome for CC[C@@]1(O)C(=O)OCc2c1cc1n(c2=O)Cc2cc3c(CN(C)C)c(O)ccc3nc2-1 + NC1CCC(NC2CC2c2ccccc2)CC1 when you have a moment?
yes (1)

Dear colleague, could you share the recorded outcome for CC1COCCN1c1cc(C2(S(C)(=N)=O)CC2)nc(-c2ccnc3[nH]ccc23)n1 (stereo not drawn) + NC1CC1c1ccc(-c2cccc(O)c2)cc1 when you have a moment?
no (0)

Dear colleague, could you share the recorded outcome for CC(C)CC(NC(=O)C(Cc1ccccc1)NC(=O)c1cnccn1)B(O)O (stereo not drawn) + NC1CC1c1ccc(-c2cccc(O)c2)cc1 when you have a moment?
yes (1)

---

Reported values of viability, T/C for individual entries
System: 521955-158-R2-J5-PDC complex spheroid viability
Test: Anticancer human tumor 521955-158-R2-J5-PDC cell line growth inhibition;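 also: spheroids exposed to agents for seven days; percent of DMSO vehicle control luminescence viability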
Conditions: second compound 0.316 µM; first compound 0.00316 µM; hits give low values
Express your answer in %, writing the number without its unit.

| compound | reading |
| --- | --- |
| Nc1ncn(C2CC(O)C(CO)O2)c(=O)n1 (centres undefined) + NC1CC1c1ccc(-c2cccc(O)c2)cc1 | 78.3 |
| CC[C@@]1(O)C(=O)OCc2c1cc1n(c2=O)Cc2cc3c(CN(C)C)c(O)ccc3nc2-1 + NC1CC1c1ccc(-c2cccc(O)c2)cc1 | 80.5 |
| Cn1ncnc1C1c2n[nH]c(=O)c3cc(F)cc(c23)NC1c1ccc(F)cc1 (centres undefined) + NC1CCC(NC2CC2c2ccccc2)CC1 | 89.8 |

viability, T/C recorded for this compound, O=C(C=Cn1cnc(-c2cc(C(F)(F)F)cc(C(F)(F)F)c2)n1)NNc1cnccn1 + NC1CCC(NC2CC2c2ccccc2)CC1 , is 40.8

viability, T/C recorded for this compound, CC(C)CC(NC(=O)CNC(=O)c1cc(Cl)ccc1Cl)B1OC(=O)CC(CC(=O)O)(C(=O)O)O1 (centres undefined) + NC1CCC(NC2CC2c2ccccc2)CC1 , is 80.4

viability, T/C recorded for this compound, Nc1ncn(C2CC(O)C(CO)O2)c(=O)n1 (centres undefined) + NC1CCC(NC2CC2c2ccccc2)CC1 , is 97.4

viability, T/C recorded for this compound, CC1COCCN1c1cc(-c2ccnn2C)c2ccnc(-c3ccn[nH]3)c2n1 (centres undefined) + NC1CC1c1ccc(-c2cccc(O)c2)cc1 , is 23.3

viability, T/C recorded for this compound, COc1cc(Nc2ncc3c(n2)-c2ccc(Cl)cc2C(c2c(F)cccc2OC)=NC3)ccc1C(=O)O + NC1CC1c1ccc(-c2cccc(O)c2)cc1 , is 65.9

viability, T/C recorded for this compound, COc1cc(Nc2ncc3c(n2)-c2ccc(Cl)cc2C(c2c(F)cccc2OC)=NC3)ccc1C(=O)O + NC1CCC(NC2CC2c2ccccc2)CC1 , is 54.4

---

Reported values of viability, T/C for individual entries
Test system: 521955-158-R2-J5-PDC complex spheroid viability
Assay: Anticancer human tumor 521955-158-R2-J5-PDC cell line growth inhibition;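 also: spheroids exposed to agents for seven days; percent of DMSO vehicle control luminescence viability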
Details: second compound 3.16 µM; first compound 1 µM; hits give low values
Express your answer in %, writing the number without its unit.

Sample records with viability, T/C:
| compound | unitsLabel | viability, T/C |
| --- | --- | --- |
| CC(C)c1c(-c2ccccc2)nc2c(C#N)c[nH]n2c1=O + NC1CCC(NC2CC2c2ccccc2)CC1 | % | 85.1 |
| CC1(C)CCC(CN2CCN(c3ccc(C(=O)NS(=O)(=O)c4ccc(NCC5CCOCC5)c([N+](=O)[O-])c4)c(Oc4cnc5[nH]ccc5c4)c3)CC2)=C(c2ccc(Cl)cc2)C1 + NC1CCC(NC2CC2c2ccccc2)CC1 | % | 109 |
| CC1COCCN1c1cc(-c2ccnn2C)c2ccnc(-c3ccn[nH]3)c2n1 (centres undefined) + NC1CC1c1ccc(-c2cccc(O)c2)cc1 | % | 9.32 |
| O=C(c1cc(Cc2n[nH]c(=O)c3ccccc23)ccc1F)N1CCN(C(=O)C2CC2)CC1 + NC1CCC(NC2CC2c2ccccc2)CC1 | % | 102 |
| O=C(c1cc(Cc2n[nH]c(=O)c3ccccc23)ccc1F)N1CCN(C(=O)C2CC2)CC1 + NC1CC1c1ccc(-c2cccc(O)c2)cc1 | % | 75.6 |

Then this compound:
Considering CC1COCCN1c1cc(C2(S(C)(=N)=O)CC2)nc(-c2ccnc3[nH]ccc23)n1 (centres undefined) + NC1CCC(NC2CC2c2ccccc2)CC1 , its viability, T/C with 521955-158-R2-J5-PDC complex spheroid viability was recorded as 17.6

Just for reference, PubChem BioAssay AID1918937 is where these values come from.
